Reference for the values: paper PMC4447944

TARGET_OF_ASSAY: UniProtKB P29320
Sequence (P29320 21-983): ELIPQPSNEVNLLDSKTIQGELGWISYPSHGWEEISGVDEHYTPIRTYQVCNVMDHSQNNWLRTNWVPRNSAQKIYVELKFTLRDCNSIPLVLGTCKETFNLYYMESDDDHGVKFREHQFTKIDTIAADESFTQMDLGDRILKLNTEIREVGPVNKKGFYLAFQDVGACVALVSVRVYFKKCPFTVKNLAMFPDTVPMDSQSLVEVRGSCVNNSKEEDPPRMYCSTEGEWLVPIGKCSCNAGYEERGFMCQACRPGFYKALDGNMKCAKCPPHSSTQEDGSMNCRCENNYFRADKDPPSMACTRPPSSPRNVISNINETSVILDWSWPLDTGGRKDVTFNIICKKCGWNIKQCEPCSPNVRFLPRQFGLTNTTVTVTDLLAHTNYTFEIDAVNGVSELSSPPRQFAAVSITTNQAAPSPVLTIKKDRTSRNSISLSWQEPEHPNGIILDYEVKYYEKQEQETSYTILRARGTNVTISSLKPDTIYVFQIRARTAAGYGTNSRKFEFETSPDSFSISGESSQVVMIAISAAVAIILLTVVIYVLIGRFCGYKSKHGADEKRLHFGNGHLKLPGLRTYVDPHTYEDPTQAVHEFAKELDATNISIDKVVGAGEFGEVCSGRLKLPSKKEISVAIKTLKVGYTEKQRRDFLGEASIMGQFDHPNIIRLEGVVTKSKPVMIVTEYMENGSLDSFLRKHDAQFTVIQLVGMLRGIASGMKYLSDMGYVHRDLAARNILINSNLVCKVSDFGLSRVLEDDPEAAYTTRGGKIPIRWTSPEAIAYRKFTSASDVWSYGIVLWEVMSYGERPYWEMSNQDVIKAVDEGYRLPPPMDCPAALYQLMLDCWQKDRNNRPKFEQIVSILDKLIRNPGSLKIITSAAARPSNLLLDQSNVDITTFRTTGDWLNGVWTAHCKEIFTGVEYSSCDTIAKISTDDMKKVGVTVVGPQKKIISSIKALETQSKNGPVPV
ASSAY_ENDPOINT: IC50

> print(dat)
                            molecule.smiles   target.of.assay  assay.endpoint  reading
1  Cc1cn(CCN2CCN(c3ccccc3-c3cc(C#N)cc(C(=O)NCCCN4CCCC4)c3)CC2)c2ccccc12  UniProtKB P29320            IC50  > 20 µM

###

TARGET_OF_ASSAY: hSRPK1 (Homo sapiens, UniProt Q96SB4)
ASSAY_ENDPOINT: IC50

> print(dat)
                            molecule.smiles  reading
1  Cc1cn(CCN2CCN(c3ccccc3-c3cc(C#N)cc(C(=O)NCCCN4CCCC4)c3)CC2)c2ccccc12  > 20 µM

###

TARGET_OF_ASSAY: UniProtKB P15056
ASSAY_ENDPOINT: IC50

> print(dat)
                            molecule.smiles  reading
1  Cc1cn(CCN2CCN(c3ccccc3-c3cc(C#N)cc(C(=O)NCCCN4CCCC4)c3)CC2)c2ccccc12  > 20 µM

###

TARGET_OF_ASSAY: UniProt P21709
Sequence (P21709 26-976): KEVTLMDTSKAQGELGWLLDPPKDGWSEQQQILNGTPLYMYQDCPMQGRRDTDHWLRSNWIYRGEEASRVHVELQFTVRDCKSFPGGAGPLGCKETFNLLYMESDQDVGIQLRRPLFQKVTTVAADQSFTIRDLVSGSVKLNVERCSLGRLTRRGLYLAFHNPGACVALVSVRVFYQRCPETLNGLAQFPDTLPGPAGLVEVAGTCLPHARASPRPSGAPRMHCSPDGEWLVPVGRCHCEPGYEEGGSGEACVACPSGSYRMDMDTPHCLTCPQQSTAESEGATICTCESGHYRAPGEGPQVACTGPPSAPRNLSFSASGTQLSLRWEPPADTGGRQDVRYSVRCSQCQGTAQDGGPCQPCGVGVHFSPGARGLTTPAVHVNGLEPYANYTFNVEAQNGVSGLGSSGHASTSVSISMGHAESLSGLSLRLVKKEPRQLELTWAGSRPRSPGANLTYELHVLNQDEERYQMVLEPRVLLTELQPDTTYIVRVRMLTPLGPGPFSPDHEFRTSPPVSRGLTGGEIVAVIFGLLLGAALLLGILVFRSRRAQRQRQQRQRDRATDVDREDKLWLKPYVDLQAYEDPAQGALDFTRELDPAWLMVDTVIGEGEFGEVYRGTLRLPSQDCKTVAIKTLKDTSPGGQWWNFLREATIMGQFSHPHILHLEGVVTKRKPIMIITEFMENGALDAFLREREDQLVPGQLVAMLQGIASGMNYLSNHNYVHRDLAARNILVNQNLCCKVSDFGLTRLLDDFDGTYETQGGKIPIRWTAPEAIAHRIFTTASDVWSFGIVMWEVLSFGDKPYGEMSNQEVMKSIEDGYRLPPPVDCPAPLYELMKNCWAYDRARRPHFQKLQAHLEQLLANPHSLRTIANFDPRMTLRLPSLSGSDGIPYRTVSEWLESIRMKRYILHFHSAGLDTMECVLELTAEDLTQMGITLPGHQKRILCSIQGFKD
pIC50: −log10 of the molar value.
ASSAY_ENDPOINT: pIC50

> print(dat)
                            molecule.smiles  reading
1  Cc1cn(CCN2CCN(c3ccccc3-c3cc(C#N)cc(C(=O)NCCCN4CCCC4)c3)CC2)c2ccccc12   < 4.70

###

TARGET_OF_ASSAY: hKIT(V559D) (Homo sapiens, UniProt P10721, V559D)
PROTOCOL_DETAILS: KINOMEscan
ASSAY_ENDPOINT: IC50

> print(dat)
                            molecule.smiles                           target.of.assay  assay.endpoint  reading
1  Cc1cn(CCN2CCN(c3ccccc3-c3cc(C#N)cc(C(=O)NCCCN4CCCC4)c3)CC2)c2ccccc12  hKIT(V559D) (Homo sapiens, UniProt P10721, V559D)            IC50  > 20 µM

###

TARGET_OF_ASSAY: hDAPK1 (Homo sapiens, UniProt P53355)
Sequence (P53355 whole entry): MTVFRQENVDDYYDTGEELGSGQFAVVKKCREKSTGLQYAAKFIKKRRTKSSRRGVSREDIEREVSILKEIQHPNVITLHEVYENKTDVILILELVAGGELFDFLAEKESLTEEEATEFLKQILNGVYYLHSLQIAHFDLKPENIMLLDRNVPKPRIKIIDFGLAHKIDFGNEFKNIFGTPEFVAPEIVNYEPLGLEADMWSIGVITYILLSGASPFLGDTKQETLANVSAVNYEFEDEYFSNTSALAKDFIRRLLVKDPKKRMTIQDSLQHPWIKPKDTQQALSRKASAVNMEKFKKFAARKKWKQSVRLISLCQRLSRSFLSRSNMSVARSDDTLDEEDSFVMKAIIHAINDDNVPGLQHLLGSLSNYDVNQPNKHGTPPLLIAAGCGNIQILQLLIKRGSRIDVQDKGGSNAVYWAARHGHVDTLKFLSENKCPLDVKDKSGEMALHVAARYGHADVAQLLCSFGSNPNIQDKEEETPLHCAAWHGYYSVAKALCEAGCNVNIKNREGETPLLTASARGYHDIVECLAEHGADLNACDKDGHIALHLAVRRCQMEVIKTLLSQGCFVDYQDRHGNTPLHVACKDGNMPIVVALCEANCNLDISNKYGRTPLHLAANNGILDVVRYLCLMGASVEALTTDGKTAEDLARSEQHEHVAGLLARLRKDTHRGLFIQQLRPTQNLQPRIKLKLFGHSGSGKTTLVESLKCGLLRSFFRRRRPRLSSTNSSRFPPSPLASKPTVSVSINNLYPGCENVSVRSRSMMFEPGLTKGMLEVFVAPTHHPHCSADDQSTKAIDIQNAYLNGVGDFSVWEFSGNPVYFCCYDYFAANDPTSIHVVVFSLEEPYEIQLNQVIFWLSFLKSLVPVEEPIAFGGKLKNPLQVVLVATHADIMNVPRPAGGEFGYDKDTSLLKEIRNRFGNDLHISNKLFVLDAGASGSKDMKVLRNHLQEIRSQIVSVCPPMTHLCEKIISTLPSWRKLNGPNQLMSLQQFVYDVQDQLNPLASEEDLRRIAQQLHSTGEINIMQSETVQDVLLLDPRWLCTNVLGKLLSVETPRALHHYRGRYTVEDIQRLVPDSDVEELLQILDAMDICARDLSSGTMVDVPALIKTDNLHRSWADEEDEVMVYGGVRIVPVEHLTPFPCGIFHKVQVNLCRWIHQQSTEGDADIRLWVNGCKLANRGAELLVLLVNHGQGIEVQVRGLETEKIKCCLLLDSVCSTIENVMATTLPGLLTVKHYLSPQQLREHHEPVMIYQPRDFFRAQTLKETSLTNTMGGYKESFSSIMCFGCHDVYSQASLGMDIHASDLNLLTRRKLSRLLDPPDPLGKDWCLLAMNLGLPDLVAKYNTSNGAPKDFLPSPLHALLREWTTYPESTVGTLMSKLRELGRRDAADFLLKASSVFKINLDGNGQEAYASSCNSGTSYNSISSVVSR
ASSAY_ENDPOINT: IC50

> print(dat)
                                   compound  assay.endpoint  reading
1  Cc1cn(CCN2CCN(c3ccccc3-c3cc(C#N)cc(C(=O)NCCCN4CCCC4)c3)CC2)c2ccccc12 [LLY-507]            IC50  > 20 µM

###

TARGET_OF_ASSAY: hRIOK3 (Homo sapiens)
Sequence (O14730 whole entry): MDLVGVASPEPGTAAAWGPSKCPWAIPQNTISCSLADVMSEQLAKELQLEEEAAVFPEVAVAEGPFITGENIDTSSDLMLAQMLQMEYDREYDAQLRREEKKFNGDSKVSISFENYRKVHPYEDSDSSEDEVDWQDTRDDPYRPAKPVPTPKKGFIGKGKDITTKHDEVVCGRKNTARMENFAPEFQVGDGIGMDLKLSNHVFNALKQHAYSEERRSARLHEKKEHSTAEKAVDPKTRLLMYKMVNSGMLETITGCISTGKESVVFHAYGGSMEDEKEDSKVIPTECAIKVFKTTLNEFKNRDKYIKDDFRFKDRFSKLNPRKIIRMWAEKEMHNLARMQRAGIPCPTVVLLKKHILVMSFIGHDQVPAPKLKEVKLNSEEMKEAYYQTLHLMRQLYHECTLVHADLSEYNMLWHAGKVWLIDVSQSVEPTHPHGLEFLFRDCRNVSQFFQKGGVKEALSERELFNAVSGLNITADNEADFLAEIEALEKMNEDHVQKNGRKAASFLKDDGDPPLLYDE
pIC50: −log10 of the molar value.
ASSAY_ENDPOINT: pIC50

> print(dat)
                            molecule.smiles        target.of.assay  reading
1  Cc1cn(CCN2CCN(c3ccccc3-c3cc(C#N)cc(C(=O)NCCCN4CCCC4)c3)CC2)c2ccccc12  hRIOK3 (Homo sapiens)   < 4.70

###

TARGET_OF_ASSAY: hACVRL1 (Homo sapiens, UniProt P37023)
ASSAY_ENDPOINT: IC50

> print(dat)
                            molecule.smiles  assay.endpoint  reading
1  Cc1cn(CCN2CCN(c3ccccc3-c3cc(C#N)cc(C(=O)NCCCN4CCCC4)c3)CC2)c2ccccc12            IC50  > 20 µM

###

TARGET_OF_ASSAY: hJAK1(JH2Dom.-pseudokinase) (Homo sapiens)
Construct: hJAK1(JH2Dom.-pseudokinase)
Sequence (P23458 583-855 limits assumed): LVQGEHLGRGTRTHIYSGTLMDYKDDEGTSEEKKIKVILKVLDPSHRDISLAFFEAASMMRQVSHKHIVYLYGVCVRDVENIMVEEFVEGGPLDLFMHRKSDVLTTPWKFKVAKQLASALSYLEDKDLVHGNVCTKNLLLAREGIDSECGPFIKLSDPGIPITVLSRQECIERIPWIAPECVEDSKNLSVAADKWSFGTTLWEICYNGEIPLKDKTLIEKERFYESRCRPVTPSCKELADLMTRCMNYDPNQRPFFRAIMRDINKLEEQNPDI
PROTOCOL_DETAILS: KINOMEscan
ASSAY_ENDPOINT: IC50

> print(dat)
                                   compound  reading
1  Cc1cn(CCN2CCN(c3ccccc3-c3cc(C#N)cc(C(=O)NCCCN4CCCC4)c3)CC2)c2ccccc12 [LLY-507]  > 20 µM

###

TARGET_OF_ASSAY: hINSR (Homo sapiens)
Sequence (P06213 28-1382): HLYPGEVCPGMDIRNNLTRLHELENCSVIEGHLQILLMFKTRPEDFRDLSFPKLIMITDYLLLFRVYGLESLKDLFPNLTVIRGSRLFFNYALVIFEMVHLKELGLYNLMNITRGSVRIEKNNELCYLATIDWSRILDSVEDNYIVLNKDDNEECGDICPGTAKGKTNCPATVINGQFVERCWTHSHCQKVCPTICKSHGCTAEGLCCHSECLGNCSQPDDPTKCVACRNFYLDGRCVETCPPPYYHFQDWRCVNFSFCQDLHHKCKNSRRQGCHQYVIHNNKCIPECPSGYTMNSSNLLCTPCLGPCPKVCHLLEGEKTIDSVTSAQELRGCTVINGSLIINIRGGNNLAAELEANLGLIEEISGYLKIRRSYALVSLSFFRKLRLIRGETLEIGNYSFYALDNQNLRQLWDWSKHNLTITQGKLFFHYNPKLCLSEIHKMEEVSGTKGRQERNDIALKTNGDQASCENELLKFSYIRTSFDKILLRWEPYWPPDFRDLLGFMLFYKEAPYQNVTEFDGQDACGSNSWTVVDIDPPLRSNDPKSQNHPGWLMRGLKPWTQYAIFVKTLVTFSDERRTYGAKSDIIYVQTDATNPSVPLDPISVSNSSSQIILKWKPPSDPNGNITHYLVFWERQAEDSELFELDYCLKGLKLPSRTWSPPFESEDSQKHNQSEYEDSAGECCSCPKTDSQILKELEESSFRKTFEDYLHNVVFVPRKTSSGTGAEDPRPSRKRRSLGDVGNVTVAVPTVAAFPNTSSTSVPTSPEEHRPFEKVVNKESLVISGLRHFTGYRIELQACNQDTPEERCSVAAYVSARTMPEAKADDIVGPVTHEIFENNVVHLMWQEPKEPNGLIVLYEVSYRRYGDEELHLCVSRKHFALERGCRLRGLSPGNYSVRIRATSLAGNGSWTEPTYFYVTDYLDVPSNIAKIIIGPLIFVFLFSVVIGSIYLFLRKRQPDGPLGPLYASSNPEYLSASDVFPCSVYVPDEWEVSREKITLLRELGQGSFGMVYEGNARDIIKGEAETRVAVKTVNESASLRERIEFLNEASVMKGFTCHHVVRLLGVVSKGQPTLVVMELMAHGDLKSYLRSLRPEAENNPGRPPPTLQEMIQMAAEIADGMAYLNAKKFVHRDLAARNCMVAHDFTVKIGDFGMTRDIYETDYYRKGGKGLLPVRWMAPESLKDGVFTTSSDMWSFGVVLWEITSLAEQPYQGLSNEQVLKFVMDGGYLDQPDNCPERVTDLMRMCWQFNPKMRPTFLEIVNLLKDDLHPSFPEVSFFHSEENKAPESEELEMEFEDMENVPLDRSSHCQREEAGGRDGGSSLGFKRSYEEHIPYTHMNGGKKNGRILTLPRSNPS
pIC50: −log10 of the molar value.
ASSAY_ENDPOINT: pIC50

> print(dat)
                            molecule.smiles  reading
1  Cc1cn(CCN2CCN(c3ccccc3-c3cc(C#N)cc(C(=O)NCCCN4CCCC4)c3)CC2)c2ccccc12   < 4.70

###

TARGET_OF_ASSAY: hRET(M918T) (Homo sapiens, UniProt P07949, M918T)
Sequence (P07949 29-1114 M918T): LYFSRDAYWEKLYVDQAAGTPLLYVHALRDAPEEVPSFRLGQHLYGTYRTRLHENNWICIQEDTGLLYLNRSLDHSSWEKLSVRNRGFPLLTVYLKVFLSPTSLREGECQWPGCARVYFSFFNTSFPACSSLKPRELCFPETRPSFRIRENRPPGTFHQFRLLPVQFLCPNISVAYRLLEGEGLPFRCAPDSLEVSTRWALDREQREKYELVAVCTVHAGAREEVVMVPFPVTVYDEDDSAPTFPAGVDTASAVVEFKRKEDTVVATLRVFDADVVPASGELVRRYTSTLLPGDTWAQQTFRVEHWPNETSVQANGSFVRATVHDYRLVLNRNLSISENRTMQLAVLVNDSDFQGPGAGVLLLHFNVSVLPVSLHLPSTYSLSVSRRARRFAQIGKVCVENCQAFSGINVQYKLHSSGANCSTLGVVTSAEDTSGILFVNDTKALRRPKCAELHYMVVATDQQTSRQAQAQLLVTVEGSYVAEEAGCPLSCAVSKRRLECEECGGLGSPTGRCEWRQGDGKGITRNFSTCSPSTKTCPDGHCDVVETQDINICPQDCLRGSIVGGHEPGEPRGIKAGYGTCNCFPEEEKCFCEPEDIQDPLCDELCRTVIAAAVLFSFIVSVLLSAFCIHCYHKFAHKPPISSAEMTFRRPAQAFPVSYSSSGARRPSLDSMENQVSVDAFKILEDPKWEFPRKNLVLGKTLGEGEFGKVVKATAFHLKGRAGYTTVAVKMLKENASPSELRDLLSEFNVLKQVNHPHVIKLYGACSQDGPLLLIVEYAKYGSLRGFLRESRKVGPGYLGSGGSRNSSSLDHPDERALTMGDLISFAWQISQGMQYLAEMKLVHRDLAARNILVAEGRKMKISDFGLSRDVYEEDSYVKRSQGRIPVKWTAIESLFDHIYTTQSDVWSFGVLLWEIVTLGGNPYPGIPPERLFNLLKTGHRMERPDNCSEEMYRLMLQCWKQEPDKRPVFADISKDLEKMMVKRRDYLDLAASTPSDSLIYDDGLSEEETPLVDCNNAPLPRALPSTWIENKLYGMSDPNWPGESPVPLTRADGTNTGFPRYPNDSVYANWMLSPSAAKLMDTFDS
PROTOCOL_DETAILS: KINOMEscan
ASSAY_ENDPOINT: IC50

> print(dat)
                                   compound  reading
1  Cc1cn(CCN2CCN(c3ccccc3-c3cc(C#N)cc(C(=O)NCCCN4CCCC4)c3)CC2)c2ccccc12 [LLY-507]  > 20 µM

###

Target protein (sequence): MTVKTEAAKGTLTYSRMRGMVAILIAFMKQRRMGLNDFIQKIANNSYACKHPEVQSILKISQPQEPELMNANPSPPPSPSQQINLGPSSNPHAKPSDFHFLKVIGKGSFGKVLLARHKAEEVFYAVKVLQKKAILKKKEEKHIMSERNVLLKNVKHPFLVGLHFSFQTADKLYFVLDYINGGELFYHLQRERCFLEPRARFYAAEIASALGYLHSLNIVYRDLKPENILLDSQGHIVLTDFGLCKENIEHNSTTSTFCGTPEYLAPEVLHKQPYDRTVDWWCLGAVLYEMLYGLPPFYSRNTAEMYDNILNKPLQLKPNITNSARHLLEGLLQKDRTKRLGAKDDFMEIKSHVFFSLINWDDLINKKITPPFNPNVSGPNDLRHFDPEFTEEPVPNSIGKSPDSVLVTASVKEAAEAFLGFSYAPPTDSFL
ASSAY_ENDPOINT: IC50

> print(dat)
                            molecule.smiles  reading
1  Cc1cn(CCN2CCN(c3ccccc3-c3cc(C#N)cc(C(=O)NCCCN4CCCC4)c3)CC2)c2ccccc12  > 20 µM
